Data origin: PubChem BioAssay (NCI)

Hi there, I'd appreciate the recorded TGI for every entry that follows.
- System: UACC-62 melanoma
- experimental.details: NCI tumour cell line growth inhibition, 48 h

Form field: reported TGI of `COc1cccc(Cc2cc(=O)c3ccc(C)nc3[nH]2)c1`
> 100 µM

Form field: reported TGI of CCC1C(=O)C(O)[C@H]2[C@@H]3C(O)CC4=CC(=O)CC[C@]4(C)[C@H]3CC[C@]12C (stereo partly specified)
> 50 µM

Form field: reported TGI of `CC(=O)c1cccc(NC(=O)C(=O)Nn2c(N)nnc2N)c1`
> 100 µM

Form field: reported TGI of O=C1CC(O)(c2ccccc2)C(c2ccccc2)=C1c1ccccc1 (stereo unspecified)
> 100 µM

Form field: reported TGI of `O=c1[nH]cnc2c1ncn2[C@@H]1C[C@H]1CO`
> 100 µM

Form field: reported TGI of `Cn1c2c3ccc(Cl)cc3nc-2c(Cl)c2ccccc21`
50.8 µM

Form field: reported TGI of `C=CN(C)S(C)(=O)=O`
> 100 µM

Form field: reported TGI of `O=C(COc1ccc(Cl)c(Cl)c1)N(Cc1ccccc1)Cc1ccc[n+](Cc2ccc(Cl)cc2S(=O)(=O)F)c1`
> 100 µM

Form field: reported TGI of `COc1cc(OC)c(NC(=O)c2cc3ccccc3cc2O)cc1Cl`
14.1 µM

Form field: reported TGI of `COc1cc(N(Cc2ccc3nc(OC)c(OC)nc3c2)Cc2ccc3nc(OC)c(OC)nc3c2)cc(OC)c1OC`
> 50 µM

Form field: reported TGI of CC1=C[P+](Cc2ccccc2)(c2ccccc2)CC1 (stereo unspecified)
> 100 µM
